# SYSTEM: GBA2 (Homo sapiens)
# Construct: expressed in transfected cells; host or cells: HEK293T (GBA/GBA2 KO background for the fluorogenic assay; endogenous-GBA background with GBA2 and GBA3 overexpressed for ABPP and intact-cell assays)
# Sequence (Q9HCG7 whole entry): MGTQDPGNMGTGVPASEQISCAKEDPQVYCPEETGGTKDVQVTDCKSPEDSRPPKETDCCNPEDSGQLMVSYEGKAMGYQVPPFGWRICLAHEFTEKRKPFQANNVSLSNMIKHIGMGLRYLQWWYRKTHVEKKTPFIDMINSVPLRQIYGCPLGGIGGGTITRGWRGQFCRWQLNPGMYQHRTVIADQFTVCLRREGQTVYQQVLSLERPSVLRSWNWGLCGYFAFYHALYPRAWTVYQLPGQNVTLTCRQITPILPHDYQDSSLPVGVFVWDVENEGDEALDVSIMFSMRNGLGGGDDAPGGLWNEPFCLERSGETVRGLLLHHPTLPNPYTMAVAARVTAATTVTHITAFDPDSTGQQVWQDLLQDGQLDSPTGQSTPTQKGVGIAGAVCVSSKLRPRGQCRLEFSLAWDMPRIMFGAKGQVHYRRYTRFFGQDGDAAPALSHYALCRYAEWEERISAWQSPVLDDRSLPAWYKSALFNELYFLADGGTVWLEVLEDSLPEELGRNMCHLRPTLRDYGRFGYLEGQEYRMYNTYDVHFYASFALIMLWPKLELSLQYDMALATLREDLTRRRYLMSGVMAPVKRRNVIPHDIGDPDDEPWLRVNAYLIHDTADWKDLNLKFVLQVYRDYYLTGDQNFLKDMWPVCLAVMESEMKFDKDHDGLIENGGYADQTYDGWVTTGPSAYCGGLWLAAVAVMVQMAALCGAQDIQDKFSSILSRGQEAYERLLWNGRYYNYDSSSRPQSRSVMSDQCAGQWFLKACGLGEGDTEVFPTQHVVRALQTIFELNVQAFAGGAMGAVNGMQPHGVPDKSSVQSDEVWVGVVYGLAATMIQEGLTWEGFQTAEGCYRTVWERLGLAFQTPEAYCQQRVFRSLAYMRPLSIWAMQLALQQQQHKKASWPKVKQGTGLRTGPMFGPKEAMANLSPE
# TEST_PROTOCOL: Inhibition in intact HEK293T cells (24 h), read out by cABPP with ABP 10, GBA2
# Format: cell-based
# TEST_PARAMETERS: 24 h treatment, cABPP quantification, n=3
RECORDED_ENDPOINT: IC50 (µM)
Report only the number, with the unit µM understood.

Given O[C@@H]1[C@@H](O)[C@H](O)C[C@H]2N[C@@H]12 [compound 2, β‐D‐xylo‐Cyclophellitol aziridine] , state its recorded IC50.
10.4

----------
# SYSTEM: GBA3 (Homo sapiens)
# Construct: expressed in transfected cells; host or cells: HEK293T (GBA/GBA2 KO background for the fluorogenic assay; endogenous-GBA background with GBA2 and GBA3 overexpressed for ABPP and intact-cell assays)
# Sequence (Q9H227 1-469): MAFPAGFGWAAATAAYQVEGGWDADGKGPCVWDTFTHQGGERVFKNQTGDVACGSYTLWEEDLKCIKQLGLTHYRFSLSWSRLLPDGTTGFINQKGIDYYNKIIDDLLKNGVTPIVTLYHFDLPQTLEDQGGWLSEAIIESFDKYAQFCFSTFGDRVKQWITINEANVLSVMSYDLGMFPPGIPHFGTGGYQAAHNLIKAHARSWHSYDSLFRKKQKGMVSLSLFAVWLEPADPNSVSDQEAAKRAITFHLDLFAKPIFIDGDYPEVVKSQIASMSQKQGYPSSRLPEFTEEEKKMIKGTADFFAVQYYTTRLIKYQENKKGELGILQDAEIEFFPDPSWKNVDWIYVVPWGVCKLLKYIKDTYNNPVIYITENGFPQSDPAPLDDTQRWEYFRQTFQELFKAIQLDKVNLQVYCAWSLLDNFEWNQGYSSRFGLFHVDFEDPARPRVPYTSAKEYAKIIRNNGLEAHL
# TEST_PROTOCOL: Fluorogenic substrate enzymatic assay, lysate of GBA/GBA2 KO HEK293T cells overexpressing GBA3
# Format: biochemical
# TEST_PARAMETERS: 30 min incubation time; read-out: apparent IC50 GBA3
RECORDED_ENDPOINT: IC50

For the compound O[C@@H]1[C@@H](O)[C@H](O)C[C@H]2O[C@@H]12 , what IC50 is on record?
> 25 µM

----------
# SYSTEM: GBA3 (Homo sapiens, UniProt Q9H227)
# Construct: expressed in transfected cells; host or cells: HEK293T (GBA/GBA2 KO background for the fluorogenic assay; endogenous-GBA background with GBA2 and GBA3 overexpressed for ABPP and intact-cell assays)
# TEST_PROTOCOL: Inhibition in intact HEK293T cells (24 h), read out by cABPP with ABP 10, GBA3
# Assay type: cell-based
# TEST_PARAMETERS: 24 h treatment, cABPP quantification, n=3
RECORDED_ENDPOINT: IC50 (µM)
The answer is to be given in µM; state only the numeric part.

Any idea what its IC50 is? The molecule is O[C@@H]1[C@@H](O)[C@H](O)C[C@H]2N[C@@H]12 [compound 2, β‐D‐xylo‐Cyclophellitol aziridine]
48.9

----------
This section presents compounds with their documented (Ratio) GBA3/GBA values.
# SYSTEM: GBA3 (Homo sapiens, UniProt Q9H227)
# Construct: expressed in transfected cells; host or cells: HEK293T (GBA/GBA2 KO background for the fluorogenic assay; endogenous-GBA background with GBA2 and GBA3 overexpressed for ABPP and intact-cell assays)
# TEST_PROTOCOL: Fluorogenic substrate enzymatic assay, lysate of GBA/GBA2 KO HEK293T cells overexpressing GBA3
# Format: biochemical
# TEST_PARAMETERS: IC50 ratio, in vitro, 30 min
When you answer, write just the number.

Name the recorded (Ratio) GBA3/GBA for CC1=CC(C)=[N+]2C1=C(CCCCc1cn(CCCCCCCCN3[C@H]4[C@H](O)[C@@H](O)[C@H](O)C[C@H]43)nn1)c1c(C)cc(C)n1[B-]2(F)F (some centres unmarked) [ABP 8] .
193

For O=C(CCCCC1SCC2NC(=O)NC21)NCc1cn(CCCCCCCCN2C3CC(O)C(O)C(O)C32)nn1 (centres unmarked) [ABP 7] , what is its reported (Ratio) GBA3/GBA?
155

Record request: (Ratio) GBA3/GBA value, item [N-]=[N+]=NCCCCCCCCN1[C@H]2[C@H](O)[C@@H](O)[C@H](O)C[C@H]21 (some centres unmarked) [compound 5]
486

Reported (Ratio) GBA3/GBA for OC[C@@H]1[C@@H](O)[C@H](O)[C@@H](O)[C@@H]2N[C@H]12 [compound 4, cyclophellitol aziridine, reference compound] : what is it?
99

# (Ratio) GBA3/GBA lookup, item CN1/C(=C/C=C/C=C/C2=[N+](CCCCCC(=O)NCc3cn(CCCCCCCCN4[C@@H]5[C@H](CO)[C@@H](O)[C@H](O)[C@@H](O)[C@@H]54)nn3)c3ccccc3C2(C)C)C(C)(C)c2ccccc21 (some centres unmarked) [ABP 10, reference compound]
1

Please report the recorded (Ratio) GBA3/GBA for CN1/C(=C/C=C/C=C/C2=[N+](CCCCCC(=O)NCc3cn(CCCCCCCCN4[C@H]5[C@H](O)[C@@H](O)[C@H](O)C[C@H]54)nn3)c3ccccc3C2(C)C)C(C)(C)c2ccccc21 (some centres unmarked) [ABP 6] .
1561

Query: (Ratio) GBA3/GBA; subject: CN1/C(=C/C=C/C=C/C2=[N+](CCCCCC(=O)NCc3cn(C[C@@H]4[C@@H](O)[C@H](O)[C@@H](O)[C@@H]5O[C@H]45)nn3)c3ccccc3C2(C)C)C(C)(C)c2ccccc21 [ABP 9, reference compound]
128

Would you mind telling me what (Ratio) GBA3/GBA value was observed for OC[C@@H]1[C@@H](O)[C@H](O)[C@@H](O)[C@@H]2O[C@H]12 [compound 3, cyclophellitol] ?
129

----------
# SYSTEM: GBA (Homo sapiens)
# Construct: HEK293T cells that contain endogenous GBA; endogenous in cells
# TEST_PROTOCOL: Inhibition in intact HEK293T cells (24 h), read out by cABPP with ABP 10, GBA
# TEST_PARAMETERS: 24 h treatment, cABPP quantification, n=3
RECORDED_ENDPOINT: IC50 (nM)
Hi! Could you send only the number? It should be in nM, unit omitted.

What measured IC50 is associated with O[C@@H]1[C@@H](O)[C@H](O)C[C@H]2O[C@@H]12 on GBA (Homo sapiens)?
5.71

What IC50 appears in the records for this compound with GBA (Homo sapiens)? O[C@@H]1[C@@H](O)[C@H](O)C[C@H]2N[C@@H]12
42.2

----------
# SYSTEM: rhGBA (recombinant human GBA, Imiglucerase) (Homo sapiens, UniProt P04062, R534H)
# Construct: purchased Sanofi Genzyme (Cambridge, MA, USA)
# Sequence (P04062 40-536 R534H): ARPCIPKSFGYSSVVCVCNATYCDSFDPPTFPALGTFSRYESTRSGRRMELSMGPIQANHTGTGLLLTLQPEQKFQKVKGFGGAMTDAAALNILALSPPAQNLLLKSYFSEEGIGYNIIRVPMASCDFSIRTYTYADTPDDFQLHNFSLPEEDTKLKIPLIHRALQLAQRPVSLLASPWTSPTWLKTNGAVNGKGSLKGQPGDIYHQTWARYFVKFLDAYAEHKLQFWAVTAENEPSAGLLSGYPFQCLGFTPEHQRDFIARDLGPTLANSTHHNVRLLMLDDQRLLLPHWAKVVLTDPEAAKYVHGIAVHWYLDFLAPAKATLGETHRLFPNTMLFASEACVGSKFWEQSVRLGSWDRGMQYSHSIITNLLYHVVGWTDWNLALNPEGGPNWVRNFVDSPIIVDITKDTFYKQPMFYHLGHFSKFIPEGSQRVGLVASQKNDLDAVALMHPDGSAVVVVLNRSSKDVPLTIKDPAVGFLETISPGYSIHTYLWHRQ
# TEST_PROTOCOL: Fluorogenic substrate (4-MU-β-D-glucoside) enzymatic assay, rhGBA
# Type: biochemical
# TEST_PARAMETERS: incubation time 30 min; enzymatic assay; ±SD, n=3; read-out: In vitro apparent IC50 rhGBA
pIC50: −log10 of the molar value.
Classify by measured pIC50: 1 (yes) if it is equal to or exceeds 8, 0 (no) if it is smaller.

COMPOUND | SYSTEM | LABEL
[N-]=[N+]=NCCCCCCCCN1[C@H]2[C@H](O)[C@@H](O)[C@H](O)C[C@H]21 (some centres unmarked) [compound 5] | rhGBA (recombinant human GBA, Imiglucerase) (Homo sapiens, UniProt P04062, R534H) | 1 (yes)

Does OC[C@@H]1[C@@H](O)[C@H](O)[C@@H](O)[C@@H]2N[C@H]12 [compound 4, cyclophellitol aziridine, reference compound] have a reported pIC50 of at least 8?
0 (no)

Does the reported pIC50 for CC1=CC(C)=[N+]2C1=C(CCCCc1cn(CCCCCCCCN3[C@H]4[C@H](O)[C@@H](O)[C@H](O)C[C@H]43)nn1)c1c(C)cc(C)n1[B-]2(F)F (some centres unmarked) [ABP 8] fall at or above the 8 mark?
1 (yes)

Decide: is the reported value of pIC50 for O[C@H]1[C@H](O)[C@@H](O)[C@@H]2O[C@@H]2[C@@H]1O [compound 13, Conduritol B‐epoxide, reference compound] equal to or greater than 8?
0 (no)

All values here come from paper PMC8596838.
